Every entry's value here was drawn from ChEMBL document CHEMBL3638847.

- targetUnderTest: Orexin/Hypocretin receptor type 1 (Homo sapiens, UniProt O43613)
- Sequence (O43613 whole entry): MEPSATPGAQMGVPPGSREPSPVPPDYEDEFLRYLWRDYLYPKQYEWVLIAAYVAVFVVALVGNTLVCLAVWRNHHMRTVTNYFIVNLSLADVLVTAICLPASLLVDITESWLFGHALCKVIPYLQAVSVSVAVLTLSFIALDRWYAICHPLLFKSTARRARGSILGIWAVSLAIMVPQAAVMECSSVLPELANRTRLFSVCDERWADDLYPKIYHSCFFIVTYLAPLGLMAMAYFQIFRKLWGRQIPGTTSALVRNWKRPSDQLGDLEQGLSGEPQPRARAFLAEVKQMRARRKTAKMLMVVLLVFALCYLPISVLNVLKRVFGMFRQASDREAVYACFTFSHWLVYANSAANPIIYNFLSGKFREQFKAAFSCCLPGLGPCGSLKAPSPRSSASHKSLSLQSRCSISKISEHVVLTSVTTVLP
- assayNotes: Radioligand Binding Assay: Human Embryonic Kidney 293 cells (HEK293) stably expressing rat orexin 1 receptor(Genebank accession number NM_001525) or […] (CHO) stably expressing human orexin 1 receptor (Genebank accession number […]) were grown to confluency in DMEM (Hyclone, cat # SH30022), 10% FBS, IX Pen/Strep, IX sodium pyruvate, 10 mM HEPES, 600 ug/mL G418 and DMEM/F12 (Gibco, Cat #1 1039), 10%FBS, IX Pen/Strep, 600 ug/mL G418 media, respectively on 150 cm2 tissue culture plates, washed with 5 mM EDTA in PBS (HyClone Dulbecco's Phoshpate Buffered Saline IX with Calcium and Magnesium, Cat # SH30264.01, hereafter referred to simply as PBS) and scraped into 50 ml tubes. After centrifugation (2K xG, 5 min at 4 C), the supernatant was aspirated and the pellets frozen and stored at -80C. Cells were resuspended in PBS in the presence of 1 tablet of protease inhibitor cocktail (Roche, Cat. #1 1836145001) per 50 mL. Each cell pellet from a 15 cm plate was resuspended in 10 mL.

{"smilesStr": "Cc1cnc(C(=O)N2CCC[C@@H](Nc3ccc(C(F)(F)F)cn3)[C@@H]2C)c(-c2ncccn2)c1", "targetUnderTest": "Orexin/Hypocretin receptor type 1 (Homo sapiens, UniProt O43613)", "unitsText": "nM", "Ki": 26}
